Task for the reader: assign each of the following molecules its reported IC50.
All answers are understood in µM, so give the number only.

Enquiry: Observed IC50 on Collagenase 3 (Homo sapiens) for `CC(C)[C@H](C(=O)NO)N(Cc1ccccc1)S(=O)(=O)c1ccc(OCCI)cc1` , please.
Return: 0.01

Enquiry: Observed IC50 on Collagenase 3 (Homo sapiens) for `CC(C)[C@H](C(=O)O)N(Cc1ccccc1)S(=O)(=O)c1ccc(N(C)C)cc1` , please.
Return: 14

Enquiry: Observed IC50 on Collagenase 3 (Homo sapiens) for `CC(C)[C@H](C(=O)NO)N(Cc1cccnc1)S(=O)(=O)c1ccc(OCCF)cc1` , please.
Return: 0.0008

Enquiry: Observed IC50 on Collagenase 3 (Homo sapiens) for `COc1ccc(S(=O)(=O)N(Cc2cccnc2F)[C@@H](C(=O)O)C(C)C)cc1` , please.
Return: 41

Enquiry: Observed IC50 on Collagenase 3 (Homo sapiens) for `COc1ccc(S(=O)(=O)N(Cc2ccc(F)nc2)[C@@H](C(=O)O)C(C)C)cc1` , please.
Return: 30

// data source = ChEMBL document CHEMBL1138259
